Molecular target: human α-thrombin (Homo sapiens)
Construct: Human α-thrombin, human factor Xa and human plasmin were obtained from Enzyme Research Laboratories; purchased Enzyme Research Laboratories (South Bend, Ind.)
Assay: Thrombin inhibition, Ki determination (hydrolysis of N-succinyl-Ala-Ala-Pro-Arg-p-nitroanilide)
Assay type: biochemical
Conditions: Table 1; pH 7.5, 37° C.; read-out: Thrombin Ki
Structures can show the parent of a compound that is named as a salt.
Ki for assorted compounds
measurement type: Ki (nM)

compound=Cc1cc(OCCC=NNC(=N)N)cc(OS(=O)(=O)c2cc(C)ccc2C)c1 value_measured=6.2
compound=Cc1cc(OCCC=NNC(=N)N)cc(OS(=O)(=O)c2cc(F)ccc2C)c1 value_measured=13.5
compound="COc1ccc(Cl)cc1S(=O)(=O)Oc1cc(C)cc(OCCC=NNC(=N)N)c1 [Example 18, hydrochloride]" value_measured=4.7

---

Target: human α-thrombin (Homo sapiens)
Construct: Human α-thrombin, human factor Xa and human plasmin were obtained from Enzyme Research Laboratories; purchased Enzyme Research Laboratories (South Bend, Ind.)
Experiment: Thrombin inhibition, Ki determination (hydrolysis of N-succinyl-Ala-Ala-Pro-Arg-p-nitroanilide)
Type: biochemical
Conditions: Table 1; pH 7.5, 37° C.; read-out: Thrombin Ki
Recorded Ki, one value per entry.
measurement type: Ki

mol_smiles=COc1ccc(Br)cc1S(=O)(=O)Oc1cc(C)cc(OCCC=NNC(=N)N)c1 value_measured="9.4 nM"
mol_smiles=Cc1cc(OCCC=NNC(=N)N)cc(N(CCCCc2ccccc2)S(=O)(=O)c2ccccc2C(F)(F)F)c1 value_measured="69.2 nM"
mol_smiles=Cc1cc(OCCC=NNC(=N)N)cc(OS(=O)(=O)c2cc([N+](=O)[O-])ccc2C)c1 value_measured="63.6 nM"
mol_smiles=Cc1cc(OCCC=NNC(=N)N)cc(OS(=O)(=O)c2ccccc2OC(F)(F)F)c1 value_measured="17.2 nM"
mol_smiles=CCOC(=O)CCCCCN(c1cc(C)cc(OCCC=NNC(=N)N)c1)S(=O)(=O)c1ccccc1C(F)(F)F value_measured="26.4 nM"
mol_smiles=COc1ccccc1S(=O)(=O)Oc1cc(C)cc(OCCCC=NNC(=N)N)c1 value_measured="1670 nM"
mol_smiles=Cc1cc(OCCC=NNC(=N)N)cc(OS(=O)(=O)c2cccc(C)c2)c1 value_measured="8.9 nM"
mol_smiles=Cc1cc(OCCC=NNC(=N)N)cc(OCc2ccccc2C(F)(F)F)c1 value_measured="465 nM"

---

Target: human α-thrombin (Homo sapiens, UniProt P00734)
Construct: Human α-thrombin, human factor Xa and human plasmin were obtained from Enzyme Research Laboratories; purchased Enzyme Research Laboratories (South Bend, Ind.)
Test: Thrombin inhibition, Ki determination (hydrolysis of N-succinyl-Ala-Ala-Pro-Arg-p-nitroanilide)
Assay type: biochemical
Conditions: Table 2; pH 7.5, 37° C.; read-out: Ki (thrombin)
pKi: −log10 of the molar value. Counter-ions that a name gives are not always drawn.
measurement type: pKi

compound="Cc1cc(OCCC=NNC(=N)N)cc(OS(=O)(=O)c2ccccc2Cl)c1 [Example 1, hydrochloride]" measurement_type=pKi value_measured=7.89

All values here come from patent US5891909A.
